Assay: Antiviral activity against Hepatitis C virus replicon in Huh7 cells
Measured quantity: IC50 (µM)
One number for each entry, in µM.

Field IC50 (entry CCCC1(C(=O)O)CCc2c1[nH]c1c(Cl)ccc(Cl)c21 (stereo unspecified) ) reads 27
